- studySystem: PD-1/PD-L1 protein/protein interaction (Homo sapiens (Human), UniProt Q9NZQ7)
- Sequence (Q9NZQ7 19-238): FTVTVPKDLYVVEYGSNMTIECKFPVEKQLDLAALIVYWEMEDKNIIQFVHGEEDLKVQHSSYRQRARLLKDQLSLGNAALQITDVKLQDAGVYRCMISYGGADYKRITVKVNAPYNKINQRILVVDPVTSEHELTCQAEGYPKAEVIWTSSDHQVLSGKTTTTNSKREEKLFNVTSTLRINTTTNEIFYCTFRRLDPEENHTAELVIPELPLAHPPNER
- experimentalProtocol: PD-1/PD-L1 Homogeneous Time-Resolved Fluorescence (HTRF) Binding Assay
- conditionsUsed: recombinant human PD-L1 (19-238)-His and PD-1 (25-167)-Fc, 25° C., PBS pH 7.4
pIC50: −log10 of the molar value.
reportedEndpoint: pIC50

Known pIC50 results, listed for orientation:
compound	studySystem	pIC50
Cc1c(-c2ccccc2)cccc1-c1nc2cc(CNCCO)nc(C)n2n1 [Example 20]	PD-1/PD-L1 protein/protein interaction (Homo sapiens (Human), UniProt Q9NZQ7)	≥ 7.00
Cc1c(-c2ccccc2)cccc1-c1cn2nc(CNCC(N)=O)cnc2n1 [Example 7]	PD-1/PD-L1 protein/protein interaction (Homo sapiens (Human), UniProt Q9NZQ7)	6.30 to 7.00
N#Cc1c(-c2ccc3c(c2)OCCO3)cccc1-c1nc2c(Cl)cc(CNCCO)cn2n1 [Example 25]	PD-1/PD-L1 protein/protein interaction (Homo sapiens (Human), UniProt Q9NZQ7)	≥ 7.00

We next turn to a different compound, shown below.
Identify the reported pIC50 for the following entry. COCCNc1cc(CNCCO)cn2nc(-c3cccc(-c4ccccc4)c3C)nc12 [Example 22] 6.30 to 7.00
